Hello, the source for this data is patent US8193369B2, in case you need it.

EC50 overview
Target: human CB2 (hCB2) receptor (Homo sapiens, UniProt P34972)
Sequence (P34972 whole entry): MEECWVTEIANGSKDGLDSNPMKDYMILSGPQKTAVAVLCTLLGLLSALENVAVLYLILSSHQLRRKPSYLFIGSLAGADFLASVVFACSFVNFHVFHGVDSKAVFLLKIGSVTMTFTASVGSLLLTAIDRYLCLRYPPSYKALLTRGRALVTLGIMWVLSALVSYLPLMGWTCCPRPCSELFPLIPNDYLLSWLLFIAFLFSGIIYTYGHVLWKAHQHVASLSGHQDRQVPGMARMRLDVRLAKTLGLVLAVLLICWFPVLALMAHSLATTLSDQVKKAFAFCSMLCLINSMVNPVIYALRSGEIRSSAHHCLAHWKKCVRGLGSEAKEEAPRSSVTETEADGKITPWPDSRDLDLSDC
Experiment: Inhibition of forskolin-activated cAMP production upon activation of human CB2 receptor (HTRF)
Details: CHO-K1 cells stably transfected with hCB2; 15 μM forskolin; pEC50=-log(EC50); relative to WIN55212-2
observationType: EC50

- CC(C)S(=O)(=O)c1ccc2c(c1)nc(C(C)(C)C)n2CC1CCS(=O)(=O)CC1 [compound 30]: 50.1 nM
- CC(=O)N1CCC(Cn2c(C(C)(C)C)nc3cc(S(=O)(=O)c4cccc(Cl)c4)ccc32)CC1 [compound 90]: 0.741 nM
- CC(=O)N1CCC(Cn2c(C(C)(C)C)nc3cc(S(=O)(=O)c4c(Cl)cccc4Cl)ccc32)CC1 [compound 60]: 3.47 nM
- CC(=O)N1CCC(Cn2c(C(C)(C)C)nc3cc(S(=O)(=O)c4ccc(F)c(C#N)c4)ccc32)CC1 [compound 105]: ~1.29 nM
- COc1ccccc1S(=O)(=O)c1ccc2c(c1)nc(C(C)(C)C)n2CC1CCN(C(C)=O)CC1 [compound 109]: ~8.71 nM
- CCS(=O)(=O)c1ccc2c(c1)nc(C(C)(C)C)n2CC1CCS(=O)(=O)CC1 [compound 29]: 27.5 nM
- CC(=O)N1CCC(Cn2c(C(C)(C)C)nc3cc(S(=O)(=O)c4ccoc4)ccc32)CC1 [compound 103]: ~3.8 nM
- CC(=O)N1CCC(Cn2c(C(C)(C)C)nc3cc(S(=O)(=O)CCCC#N)ccc32)CC1 [compound 10]: 21.9 nM

----------
Target: human CB2 (hCB2) receptor (Homo sapiens, UniProt P34972)
Construct: expressed in transfected cells; host or cells: CHO-K1
Test: Inhibition of forskolin-activated cAMP production upon activation of human CB2 receptor (HTRF)
Format: cell-based
Conditions: CHO-K1 cells stably transfected with hCB2; 15 μM forskolin; pEC50=-log(EC50); relative to WIN55212-2
Method: D. Pharmacological Examples D.1 Inhibition of cAMP in Response to Activation of the Human CB2 Receptors Functional activity of the test compounds was assessed by measuring their potency to inhibit forskolin-activated cAMP production upon activation of human CB2 (hCB2) receptor through homogenous time resolved fluorescence (HTRF) assays. […]
Class membership depends on EC50 alone; the intervals are small value (below 3 nM), mid value (3 nM to below 6 nM), large value (6 nM or more)

- CC(C)(C)c1nc2cc(S(=O)(=O)c3nccs3)ccc2n1CC1CCN(C=O)CC1 [compound 49]: large value
- CCCC(CCC)S(=O)(=O)c1ccc2c(c1)nc(C(C)(C)C)n2CC1CCN(C(C)=O)CC1 [compound 67]: small value
- CC(=O)N1CCC(Cn2c(C(C)(C)C)nc3cc(S(=O)(=O)c4ccncc4)ccc32)CC1 [compound 34]: mid value
- CC(=O)N1CCC(Cn2c(C(C)(C)C)nc3cc(Sc4ccc(F)cc4)ccc32)CC1 [compound 58]: large value
- CC(=O)N1CCC(Cn2c(C(C)(C)C)nc3cc(Sc4ccccc4Cl)ccc32)CC1 [compound 70]: small value
- CC(=O)N1CCC(Cn2c(C(C)(C)C)nc3cc(S(=O)(=O)c4ccc(C(F)(F)F)cc4)ccc32)CC1 [compound 88]: small value
- CC(=O)N1CCC(Cn2c(C(C)(C)C)nc3cc(SCC4CCC4)ccc32)CC1 [compound 41]: small value
- COc1ccc(CS(=O)(=O)c2ccc3c(c2)nc(C(C)(C)C)n3CC2CCN(C(C)=O)CC2)cc1 [compound 12]: large value
- CC(=O)N1CCC(Cn2c(C(C)(C)C)nc3cc(S(=O)(=O)c4cccc(N(C)C)c4)ccc32)CC1 [compound 98]: mid value
